Ref: PubChem BioAssay AID2060887

viability, T/C listing for selected compounds.
Tested on: 782815-120-R-J1-PDC complex spheroid viability
Experiment: Anticancer human tumor 782815-120-R-J1-PDC patient-derived colon adenocarcinoma cell line growth inhibition [RAS]
Conditions: second compound 0.03 µM; first compound 0.0316 µM; active compounds read low

{"COMPOUND": "CC(C)n1nc(-c2ccc3oc(N)nc3c2)c2c(N)ncnc21 + CCn1c(-c2cccnc2C(C)OC)c2c3cc(ccc31)N1CCOC(CC(NC(=O)C(C(C)C)N(C)C(=O)C3(F)CCN(C(=O)C#CC(C)(C)N(C)C)CC3)C(=O)N3CCCC(N3)C(=O)OCC(C)(C)C2)C1", "viability, T/C": "106%"}
{"COMPOUND": "CC(=O)OC12COC1CC(O)C1(C)C(=O)C(O)C3=C(C)C(OC(=O)C(O)C(NC(=O)OC(C)(C)C)c4ccccc4)CC(O)(C(OC(=O)c4ccccc4)C21)C3(C)C (stereo not drawn) + CCn1c(-c2cccnc2C(C)OC)c2c3cc(ccc31)N1CCOC(CC(NC(=O)C(C(C)C)N(C)C(=O)C3(F)CCN(C(=O)C#CC(C)(C)N(C)C)CC3)C(=O)N3CCCC(N3)C(=O)OCC(C)(C)C2)C1", "viability, T/C": "34.2%"}
{"COMPOUND": "C[C@@H](NC(=O)c1ncnc(N)c1Cl)c1ncc(C(=O)Nc2cc(C(F)(F)F)c(Cl)cn2)s1 + CCn1c(-c2cccnc2C(C)OC)c2c3cc(ccc31)N1CCOC(CC(NC(=O)C(C(C)C)N(C)C(=O)C3(F)CCN(C(=O)C#CC(C)(C)N(C)C)CC3)C(=O)N3CCCC(N3)C(=O)OCC(C)(C)C2)C1", "viability, T/C": "103%"}

###

Tested on: 782815-120-R-J1-PDC complex spheroid viability
Test: Anticancer human tumor 782815-120-R-J1-PDC cell line growth inhibition [RAS];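 note: spheroids exposed to compounds for 7 days before reading; 100% = DMSO vehicle control viability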
Conditions: compound 0.000949 µM; active compounds read low
READOUT_NAME: viability, T/C

{"COMPOUND": "CC1(C)CCC(Nc2ncc(C(F)(F)F)c(-c3c[nH]c4c(P(C)(C)=O)c(C#N)ccc34)n2)CN1 (centres undefined)", "ASSAYED_SYSTEM": "782815-120-R-J1-PDC complex spheroid viability", "READOUT_NAME": "viability, T/C", "ENDPOINT_RESULT": "107% [middle of 4 runs]"}
{"COMPOUND": "CCn1c(-c2cc(N3CCN(C)CC3)cnc2C(C)OC)c2c3cc(ccc31)-c1csc(n1)CC(NC(=O)C1CC1C)C(=O)N1CCCC(N1)C(=O)OCC(C)(C)C2 (centres undefined)", "ASSAYED_SYSTEM": "782815-120-R-J1-PDC complex spheroid viability", "READOUT_NAME": "viability, T/C", "ENDPOINT_RESULT": "84.7% [middle of 8 runs]"}
{"COMPOUND": "CCc1c2c(nc3ccc(O)cc13)-c1cc3c(c(=O)n1C2)COC(=O)[C@]3(O)CC", "ASSAYED_SYSTEM": "782815-120-R-J1-PDC complex spheroid viability", "READOUT_NAME": "viability, T/C", "ENDPOINT_RESULT": "100% [middle of 4 runs]"}
{"COMPOUND": "CCn1c(-c2cccnc2C(C)OC)c2c3cc(ccc31)N1CCOC(CC(NC(=O)C(C(C)C)N(C)C(=O)C3(F)CCN(C(=O)C#CC(C)(C)N(C)C)CC3)C(=O)N3CCCC(N3)C(=O)OCC(C)(C)C2)C1 (centres undefined)", "ASSAYED_SYSTEM": "782815-120-R-J1-PDC complex spheroid viability", "READOUT_NAME": "viability, T/C", "ENDPOINT_RESULT": "95.4% [middle of 8 runs]"}
